System: Setaria faberi (SETFA)
Measurement Description: Pre-emergence herbicidal glasshouse test on Setaria faberi
Assay type: in vivo
Assay Setup: pre-emergence, 1000 g/h, evaluated after 13 days, five point scale
Listed molecules paired with reported herbicidal damage, PRE Application SETFA

Example results:
[Q] Please give the documented herbicidal damage, PRE Application SETFA of "CS(=O)(=O)c1ccc(-c2cnn(C3CC3)c(=O)c2O)c(Cl)c1C1=NOCC1"
[A] 3 (3=40-59% damage)

[Q] Please report the measured herbicidal damage, PRE Application SETFA for "Cn1ncc(-n2ccc(C(F)(F)F)c(-c3ccccc3Cl)c2=O)c(O)c1=O"
[A] 5 (5=80-100% damage)

[Q] // fetch herbicidal damage, PRE Application SETFA given entry "C#CCn1ncc(-c2ccc(S(C)(=O)=O)c(C3=NOCC3)c2C)c(O)c1=O"
[A] 5 (5=80-100% damage)

***
[Q] For the molecule "Cc1ccc2cc(-c3cnn(C)c(=O)c3O)c(C(F)(F)F)nc2n1" , report herbicidal damage, PRE Application SETFA.
[A] 2 (2=20-39% damage)

Values from patent US9693556B2
